B1: DFFB (parent)
chain: TLVEAIKEQDGREVDWEYFYGLLF

# Variants of: B1
# test: protein stability index of a GFP-peptide fusion (GPS, HEK-293T) (PSI 1-6); higher = more stable;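 also: lentivirally expressed fusions sorted by FACS into six bins by GFP to DsRed ratio, PSI derived from sequencing read proportions per bin multiplied by bin number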
# protocol_conditions: c terminus: a fixed tail appended
measured_parameter: protein stability index
Please respond with just the number, no unit label.

1. L2H | 1.92

// returns reported protein stability index for input "R12N" 2.42

# repeat for "V3G" 1.58

Next variant: "V3N" 2.21

Input "Y18I" 2.06

Now give it for "K7H" too. 1.9
